System: SH-SY5Y
Experiment: Cytotoxicity against human SH-SY5Y cells assessed as reduction in cell viability after 24 hrs by MTT assay
Assay type: cell-based
outcomeMeasure: IC50

>>> readoutvalue("COc1cc(CCc2cc(OC)c(O)c(OC)c2)ccc1O [MOSCATILIN]")
"> 20 µM"
